target: Menin-MLL (Homo sapiens, UniProt O00255); construct: His-Menin (M1-L615 end); purchased BIORTUS BP9210; assay: Inhibitory activity against Menin-MLL binding (fluorescence polarization); details: fluorescence polarization; 150 nM His-Menin, 15 nM FITC-MLL; 25°C for 60 min; read-out: Menin-MLL IC50
Sequence (O00255 1-615 isoform O00255-1): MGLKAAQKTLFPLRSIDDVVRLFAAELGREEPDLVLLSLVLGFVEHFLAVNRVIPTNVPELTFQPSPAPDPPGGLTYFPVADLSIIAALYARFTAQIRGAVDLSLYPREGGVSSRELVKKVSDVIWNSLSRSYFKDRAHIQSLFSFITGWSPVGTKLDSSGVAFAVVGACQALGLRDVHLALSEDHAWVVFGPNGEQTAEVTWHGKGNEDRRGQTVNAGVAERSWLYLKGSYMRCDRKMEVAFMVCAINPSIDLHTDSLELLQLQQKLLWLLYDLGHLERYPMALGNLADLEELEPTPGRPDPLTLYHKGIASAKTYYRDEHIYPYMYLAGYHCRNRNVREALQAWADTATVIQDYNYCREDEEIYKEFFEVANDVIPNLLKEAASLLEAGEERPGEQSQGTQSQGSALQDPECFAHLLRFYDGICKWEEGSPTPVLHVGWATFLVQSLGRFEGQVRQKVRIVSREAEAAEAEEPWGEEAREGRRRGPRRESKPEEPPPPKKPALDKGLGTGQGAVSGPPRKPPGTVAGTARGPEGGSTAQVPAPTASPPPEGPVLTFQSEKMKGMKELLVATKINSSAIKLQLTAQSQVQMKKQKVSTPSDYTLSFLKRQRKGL
Experimental Readout: IC50 (nM)

Recorded results for 2 compounds are shown here.
Cc1ncc2c(-c3ccc(F)cc3C(=O)N3CCOC[C@H]3C)cc(C3CN([C@H](CCCN4CCN(CCF)CC4)C(C)C)C3)cn12 [Example 363]    6.2
Cc1nc(F)c2c(-c3ccc(F)cc3C(=O)N3CCOC[C@H]3C)cc(C3CN(C(C)C4CCOCC4)C3)cn12 (stereo partly shown) [Example 238]    10

[a] CCNC(=O)N1CCC(CN2CC(c3cc(-c4ccc(F)cc4C(=O)N4CCOC[C@H]4C)c4c(F)nc(C)n4c3)C2)CC1 [Example 261]
[b] Cc1nc(F)c2c(-c3ccc(F)cc3C(=O)N3CCOC[C@H]3C)cc(C3CN(CC4CCN(c5cncnc5)CC4)C3)cn12 [Example 266]
Among a and b , which shows a numerically higher IC50 result? Indicate which entry you chose by stating its label.
b

---

biological target: Menin-MLL (Homo sapiens); construct: His-Menin (M1-L615 end); purchased BIORTUS BP9210; assay: Inhibitory activity against Menin-MLL binding (fluorescence polarization); settings: fluorescence polarization; 150 nM His-Menin, 15 nM FITC-MLL; 25°C for 60 min; read-out: Menin-MLL IC50
Experimental Readout: IC50 (nM)

[A] Cc1nc(F)c2c(-c3ccc(F)cc3C(=O)N3CCOC[C@H]3C)cc(C3CN([C@H](CO[C@@H]4CCN(C)C4)C(C)C)C3)cn12
[B] COCCN(C)CCCC(C(C)C)N1CC(Cc2cc(-c3ccc(F)cc3C(=O)N3CCOC[C@H]3C)c3cnn(C)c3c2)C1 (some centres unmarked)
I'm curious, which of these has a smaller IC50 number: A or B ? // respond with label for picked entry
A

[1] Cc1nc(F)c2c(-c3ccc(F)cc3C(=O)N3CCOC[C@H]3C)cc(C3CN([C@H](CCCN4CCN(C(=O)C(C)C)CC4)C(C)C)C3)cn12
[2] CCN(C(=O)c1cc(F)ccc1-c1cc(C2CN([C@@H](CCCN3CCN(C)CC3)C(C)C)C2)cn2c(C)nnc12)C(C)C
[3] CCN(C(=O)c1cc(F)ccc1-c1cc(C2CCN(Cc3ccc(N4CCOC4=O)cc3)C2)cn2cncc12)C(C)C (centres unmarked)
Rank ascending by IC50. Put the labels in the requested order and write them down.
1, 3, 2

---

biological target: Menin-MLL (Homo sapiens); construct: His-Menin (M1-L615 end); purchased BIORTUS BP9210; test: Inhibitory activity against Menin-MLL binding (fluorescence polarization); settings: fluorescence polarization; 150 nM His-Menin, 15 nM FITC-MLL; 25°C for 60 min; read-out: Menin-MLL IC50
pIC50: −log10 of the molar value.
Experimental Readout: pIC50

Example entries begin here.
CCS(=O)(=O)NC1CCC(CN2CCC(c3cc(-c4ccc(F)cc4C(=O)N4CCC(F)(F)CC4C)c4cnn(C)c4c3)C2)CC1 (stereo not drawn) [Example 101]    7.34
CCN(C(=O)c1cc(F)ccc1-c1cc(C2CN([C@H](CCCN3CCN(C4(C(=O)N(C)C)COC4)CC3)C(C)C)C2)cn2c(C)ncc12)C(C)C [Example 476]    8.72
CCN(C(=O)c1cc(F)ccc1-c1cc(C2CN([C@H](CCCN3CCN(C4(CC#N)COC4)CC3)C(C)C)C2)cn2c(C)ncc12)C(C)C [Example 490]    8.54

[A] CCN(C(=O)c1cc(F)ccc1-c1cc(C2CN([C@H](CCCN3CCN(C)[C@@H](CO)C3)C(C)C)C2)cn2c(C)ncc12)C(C)C [Example 506]
[B] Cc1nc(F)c2c(-c3ccc(F)cc3C(=O)N3CCOC[C@H]3C)cc(C3CN(CC4CCOC4)C3)cn12 (stereo partly drawn) [Example 240]
[C] CCN(C(=O)c1cc(F)ccc1-c1cc(C2CN([C@H](CCCN3CCN(CCO)CC3)C(C)C)C2)cn2c(C)ncc12)C(C)C [Example 398]
Order the records so the highest pIC50 appears first and the lowest last. Please write the labels in the order that was asked for.
A, C, B

---

target: Menin-MLL (Homo sapiens); construct: His-Menin (M1-L615 end); purchased BIORTUS BP9210; assay: Inhibitory activity against Menin-MLL binding (fluorescence polarization); conditions: fluorescence polarization; 150 nM His-Menin, 15 nM FITC-MLL; 25°C for 60 min; read-out: Menin-MLL IC50
Experimental Readout: IC50 (nM)

# annotated cases, reported IC50 shown
CC(C)N(CC(F)F)C(=O)c1cc(F)ccc1-c1cc(C2CCN(CCN3CCC(NC(=O)OC(C)(C)C)CC3)C2)cc2c1cnn2C (racemic)    271
CC(C)CS(=O)(=O)N1CCC(CN2CC(c3cc(-c4ccc(F)cc4C(=O)N4CCOC[C@H]4C)c4cnn(C)c4c3)C2)CC1    424
Cc1nc(F)c2c(-c3ccc(F)cc3C(=O)N3[C@H](C)COC[C@H]3C)cc(C3CN(CC4CCN(C(=O)C5CC5)CC4)C3)cn12    11
CCN1CCN(CCC[C@@H](C(C)C)N2CC(c3cc(-c4ccc(F)cc4C(=O)N(CC)C(C)C)c4cnn(C)c4c3)C2)CC1    188
COC1CCN(CCCC(C(C)C)N2CC(c3cc(-c4ccc(F)cc4C(=O)N4CCOCC4C)c4c(F)nc(C)n4c3)C2)C1 (stereo not drawn) [Example 201-2]    56

[I] CCN(C(=O)c1cc(F)ccc1-c1cc(C2CN([C@H](CCCO)C(C)C)C2)cn2c(C)ncc12)C(C)C
[II] Cc1nc(F)c2c(-c3ccc(F)cc3C(=O)N3CCOC[C@H]3C)cc(C3CN(CC4CCN(C(=O)C5(O)CC5)CC4)C3)cn12
I'm curious whether I or II has the smaller IC50 number. Which is it? Answer format: the label of the selected item.
I
(I: 3 nM, II: 30.5 nM)

---

test system: MV-4-11 (carrying MLL-AF4); assay: Inhibition of proliferation of human tumor cells (Alamar Blue, 7 days), MV-4-11; type: cell-based; details: Homo sapiens, MV4-11, 168 h, MV-4-11 cells (carrying MLL-AF4), method calls the value GI50
pIC50: −log10 of the molar value.
Experimental Readout: pIC50

Below are worked cases with known answers.
CC(=O)N1CCC(CN2CC(Cc3cc(-c4ccc(F)cc4C(=O)N(CC(F)F)C(C)C)c4cncc(C)n34)C2)CC1 [Example 210]    8.15
Cc1nc(F)c2c(-c3ccc(F)cc3C(=O)N3CCOC[C@H]3C)cc(C3CN(CC4CCN(c5cncnc5)CC4)C3)cn12 [Example 266]    7.89
Cc1nc(F)c2c(-c3ccc(F)cc3C(=O)N3[C@H](C)COC[C@H]3C)cc(C3CN(C[C@H]4CC[C@H](n5cncn5)CC4)C3)cn12 [Example 213]    7.89
CCS(=O)(=O)N[C@H]1CC[C@H](CN2CC(c3cc(-c4ccc(F)cc4C(=O)N(CC(F)F)C(C)C)c4c(F)nc(C)n4c3)C2)CC1 [Example 132]    7.77

[1] CCN(C(=O)c1cc(F)ccc1-c1cc(C2CN(CC3CCN(C(C)=O)CC3)C2)cn2c(C)ncc12)C(C)C [Example 289]
[2] CC[C@@H](C1CCN(C(C)=O)CC1)N1CC(c2cc(-c3ccc(F)cc3C(=O)N3CCOC[C@H]3C)c3c(F)nc(C)n3c2)C1 [Example 280-1]
Returns the identifier with the smallest measured pIC50 among 1 and 2 . Indicate your choice by writing its label.
1

---

target: Menin-MLL (Homo sapiens, UniProt O00255); construct: His-Menin (M1-L615 end); purchased BIORTUS BP9210; experiment: Inhibitory activity against Menin-MLL binding (fluorescence polarization); settings: fluorescence polarization; 150 nM His-Menin, 15 nM FITC-MLL; 25°C for 60 min; read-out: Menin-MLL IC50
pIC50: −log10 of the molar value.
Experimental Readout: pIC50

CCN(C(=O)c1cc(F)ccc1-c1cc(C2CN([C@H](CCCN3CCN(C(=O)C4(C#N)COC4)CC3)C(C)C)C2)cn2c(C)ncc12)C(C)C    8.62
CC(=O)N1CC2(CN(CCC[C@H](C(C)C)N3CC(c4cc(-c5ccc(F)cc5C(=O)N5CCOC[C@H]5C)c5c(F)nc(C)n5c4)C3)C2)C1    8.42
CCN(C(=O)c1cc(F)ccc1-c1cc(CC2CN([C@@H](CCCN(C)CCOC)C(C)C)C2)n2c(C)cncc12)C(C)C    8.52
